src = ChEMBL document CHEMBL1201862

# Test system: LOX IMVI
# METHOD_NOTES: NCI tumour cell line growth inhibition, 48 h
Active and inactive are the calls of the source. Rule as the data show it: active = GI50 up to about 1.1 µM and inactive = higher.
Kindly state GI50 for each of the entries shown.

Lookup result for CCOC(=O)Nc1ccc(S(=O)(=O)OC)cc1.CCOC(=O)Nc1ccc(S(=O)(=O)OC)cc1.Nc1ncnc2c1ncn2C1OC(CO)C(O)C1O (centres undefined) ; measured GI50: 17.8 µM (inactive)

GI50 measured on C/C(=N/NC(=O)CC(=O)N(C(=O)c1ccccc1Cl)c1ccc(C)cc1)c1cc2ccccc2oc1=O = 73.1 µM (inactive)

GI50 recorded for this compound, Cc1ccc(Nc2nc3c(s2)C(=O)c2ccccc2C3=O)cc1 , is 1.58 µM (inactive)

GI50 measured on Nc1nc(O)c2ncn(C3OC(CO)C(O)C3O)c2n1 (centres undefined) = 52.5 µM (inactive)

GET /value?item= O=C(CC1=Nc2nnc(CCCCCCCc3nnc4n3C(=O)C(CC(=O)c3ccc5ccccc5c3)=N4)n2C1=O)c1ccc2ccccc2c1 &field=GI50 returns > 100 µM (inactive)

// COc1cc2c(cc1OC)C(=O)/C(=C/c1ccc(N(C)C)cc1)CC2 : GI50 value = > 10 µM (inactive)

The recorded GI50 for CC(=O)c1cc2c3c(c1)c1cc4c(cc1c(=O)n3CC2)OCO4 is 13.9 µM (inactive)

get_value(item= CCOC(=O)CNC(=O)C(C)NC(=O)C(NC(=O)CC(c1ncc[nH]1)c1ncc[nH]1)C(C)CC (centres undefined) , readout=GI50) returns > 100 µM (inactive)

// GI50 value for C/C(=N\NC(=S)N1CC2CCC(CC2)C1)c1cccc(C)n1 : 0.78 µM (active)
